B1: TPR t1 (parent)
chain: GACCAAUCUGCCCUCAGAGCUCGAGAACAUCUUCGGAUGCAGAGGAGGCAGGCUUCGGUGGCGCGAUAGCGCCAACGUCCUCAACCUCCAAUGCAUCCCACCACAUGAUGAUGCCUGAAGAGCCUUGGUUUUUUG

# Variants of: B1
# assay: polymerase ribozyme fitness, log enrichment relative to wild type (log ratio); higher = more active; in vitro selection for triplet polymerase activity
Mark condition met for reported polymerase ribozyme fitness (log ratio) of -2 or greater; mark condition not met for anything smaller.

A selection of reference data follows.
GACCAAUCUGCCCUCAGAGCUCGAGAACAUCUUCGGAUGCAGAGCAGGCAGGCUUCGGUGGCGCGAUACCGCCAACGUCCUCAACCUCCAAUGCAUCCCACCACAUGAUGAUGCCUGAAGAGCCUUGGUUUUUUG	condition not met
GACCAAUCUGCCCUCAGAGCUCGAGAACAUCUUCGGAUGCAGAGGAGGUAGGCAUCGGUGGCGCGAUAGCGCCAACGUCCUCAACCUCCAACGCAUCCCACCACAUGAUGAUGCCUGAACAGCCUUGAUUUUUUG	condition not met
GACCAAUCUGCCCUCAGAGCUCGAGAACAUCUUCGGAUUCAGAGGAGGCAGGCUUCGGUGGAGCGAUAGCGCCAACGUCCUCAACCUCCAAUGCAUCCCACCACAUGAUGAUGCCUGAAGAGCCUUGGUUUUUUG	condition not met
GACCAAUCUGCCCUCAGAGCUCGAGAACCUCUUCGGGUGCAGAGGAUGCAGGCUUCGGUGGCGCGAUAGCGUCAACGUCCUCAACCUCCAAUGCAUCCCAUCACAUGAUUAUGCCUGAAGAGCCUUGGUUUUUUG	condition not met
GACCAAUCUGCCCUCAGAGCUCGAGAACAUCUUCGGAUGCAGAGGAGGCAGGCGUCGGUGGCGCGAUAGCGCCAACGUCCUCAACCUCCACUGCAUCCCACCACAUGAUGAUUCCUGAAGCGCCUUGGUUUUUUG	condition not met

Lookup: Is polymerase ribozyme fitness (log ratio) at least -2? Consider GACCAAUCUGCCCUCAGAGCUCGAGAACAUCUUCGGAUGCAGAGGAGACAGGCUUCGGUGGCGCGAUAGCGCCAACGUCCUCAACCUCCAAUGCAUCCCUCCACAUGAUGAUGCCUGAAGAGCCUUGGUUUUUUG
Found: condition met

Lookup: Is polymerase ribozyme fitness (log ratio) at least -2? Consider GACCAAUCUGCCCUCAGAGCUCGAGAACAUCUUCGGAUGCAGAGGAGACAGGCUUCGGUGGCGCGAUAGCGCCAACGUCCUCAACCUCCAAUGCAUCCCAUCACAUGAUGAUGCCUGAAGAGCCUUGGUUUUUUG
Found: condition not met

Lookup: Is polymerase ribozyme fitness (log ratio) at least -2? Consider GACCAAUCUGCCCUCAGAGCUCGAGAACAUCUUCGGAUGCAUAGGAGGAAGGCUUCGGUGGCGCGAUAGCGCCAACGUCCGCAACCUCCAAUGCAUCCCACCACAUGAUGAUGCCUGAAGAGCCUUGGUUUUUUG
Found: condition not met

Lookup: Is polymerase ribozyme fitness (log ratio) at least -2? Consider GACCAAUCUGCCCUCAGAGCUCGAGUACAUCUUCGGAUGCAGAGGAGGCAGGCUUCGGUGGCGCGAUAGCGCCAACGUCCUCAACCUCCAAUGCAUCCCACCACAUGAUGAUGACUGAAGAGCCUUGGUUUUUUG
Found: condition not met

Lookup: Is polymerase ribozyme fitness (log ratio) at least -2? Consider GACCAAUCUGCCCUCAGAGCUCGAGAACAUCUUCGGAUGCAGAGGAGGCAGGCUUCGGUGGCGCGAUAGCGCCAACGUCCUCAACCUCCAAUGCAACCCACCACAUGAUGAUGCCUGAUGAGCCUUGGUUUUUUG
Found: condition met

Lookup: Is polymerase ribozyme fitness (log ratio) at least -2? Consider GACCAAUCUGCCCUCAGAGCUCGAGAACAUCUUCGUAUGCAGAGGAGGCAGGCUUCGGUGGCGUGAUAGCGCCAACGUCCUCAACCUCCAAUGCAUCCCACCACAUGAUGAUGCGUUAAGAGCCUUGGUUUAUUG
Found: condition not met
